Biological target: Recombinant human H-PGDS (Homo sapiens)
Sequence (O60760 whole entry): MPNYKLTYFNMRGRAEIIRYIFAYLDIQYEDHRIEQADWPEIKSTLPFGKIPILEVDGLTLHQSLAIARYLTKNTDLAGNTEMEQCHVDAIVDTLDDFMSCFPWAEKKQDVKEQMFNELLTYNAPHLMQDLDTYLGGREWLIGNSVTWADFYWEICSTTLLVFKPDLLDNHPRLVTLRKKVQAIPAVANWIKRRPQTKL
Test: H-PGDS inhibitory activity (prostaglandin D2 production from prostaglandin H2, measured by LC-MS/MS)
Conditions: recombinant human H-PGDS 1.0 nM expressed in E. coli; prostaglandin H2 25 μM; preincubated 15 minutes on ice, reacted on ice for 1 minute; concentration that inhibits prostaglandin D2 production by 50%
Assign pIC50 to each entry below.
The scale used: pIC50 is minus the common logarithm of the concentration in molar units.

Name the recorded pIC50 of the compound listed here: "O=C(NC1CCN(c2nccc(N3CCC3)n2)CC1)c1ccc(-c2nccc3occc23)cc1"
8.72

Name the recorded pIC50 of the compound listed here: "CC(C)(O)[C@H]1CC[C@H](NC(=O)c2ccc(-c3nccc4occc34)c(F)c2)CC1"
8.66

Name the recorded pIC50 of the compound listed here: "Cc1cccc(N2CCC(NC(=O)c3ccc(-c4nccc5occc45)cc3)CC2)n1"
8.64

Name the recorded pIC50 of the compound listed here: "Cn1c(N2CCC(NC(=O)c3ccc(-c4nccc5occc45)cc3)CC2)nccc1=O"
8.77

Name the recorded pIC50 of the compound listed here: "Cc1cnc(-c2ccc(C(=O)N[C@H]3CC[C@H](C(C)(C)O)CC3)cc2)c2cc[nH]c12"
8.85

Name the recorded pIC50 of the compound listed here: "CC(C)N(CCNC(=O)c1ccc(-c2nccc3[nH]ccc23)cc1)C(C)C"
8.80

Name the recorded pIC50 of the compound listed here: CCC(O)CNC(=O)c1ccc(-c2nccc3occc23)cc1 (centres unmarked)
7.49

Name the recorded pIC50 of the compound listed here: "CC(C)(O)CO[C@H]1CC[C@H](NC(=O)c2ccc(-c3nccc4occc34)cc2)CC1"
8.51

---

Biological target: Recombinant human H-PGDS (Homo sapiens)
Assay: H-PGDS inhibitory activity (prostaglandin D2 production from prostaglandin H2, measured by LC-MS/MS)
Settings: recombinant human H-PGDS 1.0 nM expressed in E. coli; prostaglandin H2 25 μM; preincubated 15 minutes on ice, reacted on ice for 1 minute; concentration that inhibits prostaglandin D2 production by 50%
Where a name gives a salt, the structure may show the parent alone.
Assign pIC50 to each entry below.
The scale used: pIC50 is minus the common logarithm of the concentration in molar units.

Name the recorded pIC50 of the compound listed here: CC(C)N(CCNC(=O)c1ccc(-c2nccc3occc23)cc1)C(C)C [Example 98, dihydrochloride]
6.97

Name the recorded pIC50 of the compound listed here: "O=C(NC1CCN(c2ncc(CO)cn2)CC1)c1ccc(-c2nccc3occc23)cc1"
8.68

Name the recorded pIC50 of the compound listed here: "Cc1cc2occc2c(-c2ccc(C(=O)NC34CCC(O)(CC3)CC4)cc2)n1"
8.92

Name the recorded pIC50 of the compound listed here: CC(O)CNC(=O)c1ccc(-c2nccc3sccc23)cc1 (stereo not drawn)
7.51

Name the recorded pIC50 of the compound listed here: "CC(C)(O)[C@H]1CC[C@H](NC(=O)c2ccc(-c3ncc(C(N)=O)c4occc34)cc2)CC1"
6.65

Name the recorded pIC50 of the compound listed here: "O=C(NCc1cccc(Cl)c1)c1ccc(-c2nccc3occc23)cc1"
8.22

---

Biological target: Recombinant human H-PGDS (Homo sapiens)
Test: H-PGDS inhibitory activity (prostaglandin D2 production from prostaglandin H2, measured by LC-MS/MS)
Conditions: recombinant human H-PGDS 1.0 nM expressed in E. coli; prostaglandin H2 25 μM; preincubated 15 minutes on ice, reacted on ice for 1 minute; concentration that inhibits prostaglandin D2 production by 50%
Assign pIC50 to each entry below.
The scale used: pIC50 is minus the common logarithm of the concentration in molar units.

Give Recombinant human H-PGDS (Homo sapiens) pIC50 for the following compound: CCCn1ccc(CNC(=O)c2ccc(-c3nccc4[nH]ccc34)cc2)n1 [Example 44]
9.01

Give Recombinant human H-PGDS (Homo sapiens) pIC50 for the following compound: O=C(NC1CCN(c2ccnc(Cl)c2)CC1)c1ccc(-c2nccc3occc23)cc1 [Example 165]
8.89

Give Recombinant human H-PGDS (Homo sapiens) pIC50 for the following compound: O=C(N[C@H]1CC[C@H](N2CCOCC2)CC1)c1ccc(-c2nccc3occc23)cc1 [Example 305]
7.26

Give Recombinant human H-PGDS (Homo sapiens) pIC50 for the following compound: O=C(N[C@H]1CCCC[C@@H]1O)c1ccc(-c2nccc3occc23)cc1 (relative stereo) [Example 274]
7.89

Give Recombinant human H-PGDS (Homo sapiens) pIC50 for the following compound: Cc1nn(C)cc1CNC(=O)c1ccc(-c2nccc3[nH]ccc23)cc1 [Example 39]
8.96

Give Recombinant human H-PGDS (Homo sapiens) pIC50 for the following compound: NS(=O)(=O)c1ccc(NC(=O)c2ccc(-c3nccc4occc34)cc2)cc1 [Example 102]
8.74

Give Recombinant human H-PGDS (Homo sapiens) pIC50 for the following compound: Cn1cc(CNC(=O)c2ccc(-c3nccc4[nH]ccc34)cc2)cn1 [Example 55]
8.92

Give Recombinant human H-PGDS (Homo sapiens) pIC50 for the following compound: CN(C)c1ccnc(N2CCC(NC(=O)c3ccc(-c4nccc5occc45)cc3)CC2)n1 [Example 161]
8.70

Give Recombinant human H-PGDS (Homo sapiens) pIC50 for the following compound: CC(C)(O)[C@H]1CC[C@H](NC(=O)c2ccc(-c3nc(F)cc4occc34)cc2)CC1 [Example 316]
8.82

Give Recombinant human H-PGDS (Homo sapiens) pIC50 for the following compound: O=C(N[C@H]1COCCN(c2ncccn2)C1)c1ccc(-c2nccc3occc23)cc1 [Example 225]
8.19

Give Recombinant human H-PGDS (Homo sapiens) pIC50 for the following compound: O=C(Nc1ccccn1)c1ccc(-c2nccc3occc23)cc1 [Example 107]
7.72

Give Recombinant human H-PGDS (Homo sapiens) pIC50 for the following compound: COc1cnc(N2CCC(NC(=O)c3ccc(-c4nccc5occc45)cc3)CC2)nc1 [Example 168]
8.77

Give Recombinant human H-PGDS (Homo sapiens) pIC50 for the following compound: O=C(NC1CCCC1)c1ccc(-c2nccc3[nH]ccc23)cc1 [Example 12]
8.96

Give Recombinant human H-PGDS (Homo sapiens) pIC50 for the following compound: O=C(NC[C@H]1C[C@@H](O)C1)c1ccc(-c2nccc3occc23)cc1 [Example 219]
7.92

Give Recombinant human H-PGDS (Homo sapiens) pIC50 for the following compound: CC(C)(O)[C@H]1CC[C@H](NC(=O)c2ccc(-c3nc(CO)cc4occc34)cc2)CC1 [Example 319]
8.80

Give Recombinant human H-PGDS (Homo sapiens) pIC50 for the following compound: O=C(NCC1CCCC1)c1ccc(-c2nccc3occc23)cc1 [Example 84]
7.85

Give Recombinant human H-PGDS (Homo sapiens) pIC50 for the following compound: CC(C)NC(=O)c1ccc(-c2nccc3[nH]ccc23)cc1 [Example 15]
9.00

Give Recombinant human H-PGDS (Homo sapiens) pIC50 for the following compound: O=C(NC1CCN(C2COC2)CC1)c1ccc(-c2nccc3occc23)cc1 [Example 236]
8.96

Give Recombinant human H-PGDS (Homo sapiens) pIC50 for the following compound: O=C(NC1C2CC3CC1CC(O)(C3)C2)c1ccc(-c2nccc3occc23)cc1 (stereo not shown) [Example 272]
8.62

Give Recombinant human H-PGDS (Homo sapiens) pIC50 for the following compound: O=C(NC1CCN(c2cccc3nccn23)CC1)c1ccc(-c2nccc3occc23)cc1 [Example 238]
8.44

Give Recombinant human H-PGDS (Homo sapiens) pIC50 for the following compound: CC(C)(O)[C@H]1CC[C@H](NC(=O)c2ccc(-c3nc(C(N)=O)cc4occc34)cc2)CC1 [Example 318]
6.44

Give Recombinant human H-PGDS (Homo sapiens) pIC50 for the following compound: O=C(NC1CCN(c2ncccn2)CC1)c1ccc(-c2nccc3occc23)cc1 [Example 143]
9.11

Give Recombinant human H-PGDS (Homo sapiens) pIC50 for the following compound: O=C(N[C@H]1CCN(c2ccnc(Cl)c2)C1)c1ccc(-c2nccc3occc23)cc1 [Example 195]
8.77

Give Recombinant human H-PGDS (Homo sapiens) pIC50 for the following compound: O=C(N[C@H]1CC[C@](O)(C2CC2)CC1)c1ccc(-c2nccc3occc23)cc1 [Example 291]
8.62

Give Recombinant human H-PGDS (Homo sapiens) pIC50 for the following compound: O=C(N[C@H]1CC[C@H](C(O)C(F)(F)F)CC1)c1ccc(-c2nccc3occc23)cc1 (stereo partly shown) [Example 309]
8.72

Give Recombinant human H-PGDS (Homo sapiens) pIC50 for the following compound: Cc1cccnc1N1CCC(NC(=O)c2ccc(-c3nccc4occc34)cc2)CC1 [Example 153]
8.39

Give Recombinant human H-PGDS (Homo sapiens) pIC50 for the following compound: CC(C)(O)[C@H]1CC[C@@H](NC(=O)c2ccc(-c3nccc4occc34)cc2)CC1 [Example 354]
7.46

Give Recombinant human H-PGDS (Homo sapiens) pIC50 for the following compound: O=C(NC1CC2(C1)CN(c1ncccn1)C2)c1ccc(-c2nccc3occc23)cc1 [Example 210]
8.46
